# System: PC-3
# MEASUREMENT_PROTOCOL: Growth inhibition of human PC-3 cells assessed as cell growth at 10 uM incubated for 48 hrs by sulforhodamine B assay relative to control
# Type: functional
# ASSAY_SETUP: read-out: Activity
Field: growth at 10 µM. Provide a value for each of the molecules that follow.
One number for each entry, in %.

substance_smiles=CCN(CC)CC(=O)Nc1cccc(C(=O)Nc2cc(CO)cc(NC(C)=O)c2)c1 test_readout="growth at 10 µM" val=102
substance_smiles=CC(=O)Nc1ccc(C(=O)Nc2cc(CO)cc(NC(C)=O)c2)cc1 test_readout="growth at 10 µM" val=104
substance_smiles=CC(=O)Nc1cc(CO)cc(NC(=O)c2cccc(NC(=O)CCCN3CCOCC3)c2)c1 test_readout="growth at 10 µM" val=102
substance_smiles=CC(=O)Nc1cc(CO)cc(NC(=O)c2ccc(C(=O)Nc3cc(CO)cc(NC(C)=O)c3)cc2)c1 test_readout="growth at 10 µM" val=97.9
substance_smiles=CC(=O)Nc1cccc(NC(=O)c2ccc(C(=O)Nc3cc(CO)cc(NC(C)=O)c3)cc2)c1 test_readout="growth at 10 µM" val=101

Read the next record carefully.
What the record says about "CC(=O)Nc1cc(CO)cc(NC(=O)c2ccc(C(=O)Nc3cccc(NC(=O)CCCN(C)C)c3)cc2)c1" : growth at 10 µM is 98.6
